Please provide measured pKD for the entries that follow.
target: Fc-fusion protein of human carbonic anhydrase IX (human, UniProt Q16790 38-414); experiment: SPR, captured hCAIX-Fc; pKD category A: >8.0
Starred links: 1 amine or outer side, 2 acyl side, 3 side chain; linkers in the order of their positions; H or OH if unused. Positions of bridges follow the written chain, without caps; N, C: chain ends. Non-standard residues stand in square brackets, D forms with d. Primed or numbered codes have the meaning given here. *: point of attachment. Phe(3-NHCO(CH2)3SO2NH2) = N[C@@H](Cc1cccc(NC(=O)CCCS(N)(=O)=O)c1)C(=O)O; APAc″ = 2-(4-(amino)piperidin-1-yl)acetic acid, NC1CCN(CC(=O)*)CC1; DOTA = O=C(O)CN1CCN(CC(=O)O)CCN(CC(=O)*)CCN(CC(=O)O)CC1; PPAc = 4-carboxymethyl piperazine linker; mXylylene = c1cc(C[*:1])cc(C[*:2])c1; N4Inda = not defined here; APAc = not defined here; Dap = NC[C@H](N)C(=O)O

Problem: Param item = {DOTA-APAc}-VYCE[dP]E(N4Inda)WLTWSC-NH2 (linker 3-12 via mXylylene; reading uncertain) [3BP-4387] ; retrieve measured pKD.
Result: > 8 pkd

Problem: Param item = {DOTA-APAc″}-CE[dP]DWLTWSC-NH2 (linker 1-10 via mXylylene) [3BP-3858] ; retrieve measured pKD.
Result: > 8 pkd

Problem: Param item = {DOTA-PPAc}-ECE[dP]D[Phe(3-NHCO(CH2)3SO2NH2)]LTW[Dap]C-NH2 (lactam 1-10; linker 2-11 via mXylylene) [3BP-4502] ; retrieve measured pKD.
Result: > 8 pkd
